Source listed as PubChem BioAssay AID330.

system: P388 leukemia ip, CD2F1 mice, survival T/C; test: NCI In Vivo Anticancer Drug Screen. Data for tumor model P388 Leukemia (intraperitoneal) in CD2F1 (CDF1) mice; details: endpoint: median survival time; dose: 400.0 mg/kg/injection; schedule: Q04DX002 (ip); vehicle: Klucel (hydroxypropylcellulose) (HPC)
Inconclusive results and toxic doses are left out. The calls were made as follows: active = survival T/C of 150% or more; inactive = T/C below 125% in these data.
Outcomes: 1 (active), -1 (inactive)

>>> label_class("C=COC(=O)C(Cc1ccc(F)cc1)NC(=O)OCc1ccccc1 (configuration not stated)")
-1
>>> label_class("CCOC(=O)NCNC(=O)OCC")
-1
>>> label_class("CN1CCC/C1=C/C(=O)c1ccccc1[N+](=O)[O-]")
-1
>>> label_class("O=C1CSC(c2ccccc2Cl)N1c1n[nH]c(=S)s1 (configuration not stated)")
-1
>>> label_class("CN(O)C1(/C(N)=N/O)C(C2COC(C)(C)O2)OC2OC(C)(C)OC21 (configuration not stated)")
-1
>>> label_class("NC(N)=NS(=O)(=O)c1ccc(NCc2c3ccccc3nc3ccccc23)cc1")
1
>>> label_class("CS(=O)c1c(C(=O)O)cc(C(C)(C)C)cc1C(=O)O (configuration not stated)")
-1

---

tested on: P388 leukemia ip, CD2F1 mice, survival T/C; test: NCI In Vivo Anticancer Drug Screen. Data for tumor model P388 Leukemia (intraperitoneal) in CD2F1 (CDF1) mice; details: endpoint: median survival time; dose: 400.0 mg/kg/injection; schedule: Q04DX003 (ip); vehicle: saline with Tween-80; higher = longer survival
Inconclusive results and toxic doses are left out.
Readout Name: T/C

>>> value("O=[N+]([O-])c1cnn(Cn2cc([N+](=O)[O-])cn2)c1")
"120 % of control"
>>> value("COC/C(=N/Nc1ccc([N+](=O)[O-])cc1[N+](=O)[O-])c1ccccc1")
"90 % of control"
>>> value("CCC(=O)O[C@H]1CC[C@H]2[C@@H]3[C@@H](C)CC4=CC(=O)CC[C@]4(C)[C@H]3CC[C@]12C")
"90 % of control"
>>> value("O=S(=O)(Nc1ccc(Br)cc1)c1ccccc1")
"91 % of control"
>>> value("C=C1C(=O)OCC1C(=O)OCC (stereo unspecified)")
"98 % of control"
>>> value("CN(C)c1nc(N/N=C/c2ccc([N+](=O)[O-])cc2)nc(N(C)C)n1")
"93 % of control"
>>> value("CCCn1c(=S)[nH]c2ccccc2c1=O")
"91 % of control"
>>> value("COc1ccc(Oc2nc(=O)n3ccsc3n2)cc1")
"94 % of control"
>>> value("O=C(Nc1ccc2c(c1)Cc1cccc(NC(=O)C(Cl)Cl)c1-2)C(Cl)Cl")
"87 % of control"
>>> value("C=CCN(CC=C)c1ncnc2[nH]ncc12")
"100 % of control"
>>> value("COC(=O)c1ccc(COc2ccc([N+](=O)[O-])cc2Cl)cc1")
"103 % of control"
>>> value("O=[N+]([O-])c1ccc2c(N=Nc3ccc4ccccc4c3O)c(O)cc(S(=O)(=O)O)c2c1")
"100 % of control"
>>> value("CCOC(=S)c1cc(C(=S)OCC)cc(C(C)(C)C)c1")
"113 % of control"
>>> value("OC(Cc1nc2ccccc2s1)(C(F)(F)F)C(F)(F)F")
"95 % of control"
>>> value("CCCCOC(=O)C(CC)c1ccccc1 (stereo unspecified)")
"112 % of control"
>>> value("Nc1cccc(C(=O)c2cccc(N)c2)c1")
"100 % of control"
>>> value("COc1ccc(/C=N\\O)cc1OC")
"100 % of control"
>>> value("c1ccc2cc3c(cc2c1)Cn1c-3nc2ccccc21")
"100 % of control"
>>> value("S=C(NC1CCCCC1)N1CCC(CCCC2CCN(C(=S)NC3CCCCC3)CC2)CC1")
"90 % of control"
>>> value("NC(=O)c1ccc(=O)n(C2OC(CO)C(O)C2O)c1 (stereo unspecified)")
"102 % of control"
>>> value("COC(=O)N1c2ccccc2C=C(NC(C)=O)C1C#N (stereo unspecified)")
"100 % of control"

---

# T/C per record follows
tested on: P388 leukemia ip, CD2F1 mice, survival T/C; assay: NCI In Vivo Anticancer Drug Screen. Data for tumor model P388 Leukemia (intraperitoneal) in CD2F1 (CDF1) mice; conditions: endpoint: median survival time; dose: 50.0 mg/kg/injection; schedule: Q04DX003 (ip); vehicle: Klucel (hydroxypropylcellulose) (HPC); higher = longer survival
Toxic doses and inconclusive results are not listed.
Readout Name: T/C

>>> value("Clc1cc(Cl)nc(N2CCCCC2)n1")
"102 % of control"
>>> value("CCOC(=O)C1(c2ccccc2)CCN(c2c3ccccc3nc3ccccc23)CC1")
"111 % of control"
>>> value("O=C1Nc2ccccc2C12Nc1ccccc1N2")
"95 % of control"
>>> value("N#CN=[N+]([O-])c1cccc(Br)c1")
"100 % of control"

---

system: P388 leukemia ip, CD2F1 mice, survival T/C; assay: NCI In Vivo Anticancer Drug Screen. Data for tumor model P388 Leukemia (intraperitoneal) in CD2F1 (CDF1) mice; settings: endpoint: median survival time; dose: 120.0 mg/kg/injection; schedule: Q01DX005 (ip); vehicle: Klucel (hydroxypropylcellulose) (HPC); higher = longer survival
Toxic doses and inconclusive results are not listed.
Quick reference: T/C of the listed items.
Readout Name: T/C

>>> value("O=C1C2CCCN2C(=S)N1c1ccccc1 (configuration not stated)")
"91 % of control"
>>> value("O=C(O)c1sc(-c2ccccc2)c2c1-c1ccccc1C2=O")
"96 % of control"
>>> value("CCCNCC(O)COc1ccc2c3c(c(=O)oc2c1)CCC3 (configuration not stated)")
"96 % of control"
>>> value("NC(=S)c1sc(-c2ccccc2)cc1N")
"106 % of control"
>>> value("COC(=O)c1nc(N)nc(C(=O)OC)c1C(=O)c1cccc2ccccc12")
"100 % of control"
>>> value("c1ccc(N2CN(c3ccccc3)C2)cc1")
"86 % of control"
>>> value("CCOC(=O)C(C)(C)S(=O)(=O)Nc1ccccc1")
"102 % of control"
>>> value("C=CC(=O)CC1(C(=O)OC)NC(=S)NC(=O)C1C#N (configuration not stated)")
"102 % of control"
>>> value("CCOC(=O)C1(C#N)C(c2ccccc2)C(OC)(OC)C1(OC)OC (configuration not stated)")
"102 % of control"
>>> value("COc1cc(OC)cc(C2OC3=C(Nc4ccccc4N3)C2=O)c1 (configuration not stated)")
"89 % of control"
>>> value("COc1ccc(C(c2cc3c(cc2O)OCO3)N2CCCC2)cc1 (configuration not stated)")
"100 % of control"
>>> value("O=C1C2=C(Nc3cc([N+](=O)[O-])ccc3N2)OC1c1c2ccccc2cc2ccccc12 (configuration not stated)")
"88 % of control"

---

system: P388 leukemia ip, CD2F1 mice, survival T/C; experiment: NCI In Vivo Anticancer Drug Screen. Data for tumor model P388 Leukemia (intraperitoneal) in CD2F1 (CDF1) mice; details: endpoint: median survival time; dose: 6.25 mg/kg/injection; schedule: Q01DX009 (ip); vehicle: Klucel (hydroxypropylcellulose) (HPC); higher = longer survival
Toxic doses and inconclusive results are not listed.
Readout Name: T/C

>>> value("O=C(O)c1ccc(-c2nn[nH]n2)cc1")
"107 % of control"
>>> value("N#CC(Br)(Br)C#N")
"114 % of control"
>>> value("O=c1c(O)c(-c2cc(O)c(O)c(O)c2)oc2cc(O)cc(O)c12")
"105 % of control"
>>> value("CSC(=Nc1nc2ccc([N+](=O)[O-])cc2s1)SC")
"101 % of control"
>>> value("O=C(OCCCN1CCCC1)C(c1ccccc1)C1C=CCC1 (stereo unspecified)")
"100 % of control"
>>> value("O=[N+]([O-])c1cccnc1S(=O)(=O)c1ncccn1")
"100 % of control"

---

test system: P388 leukemia ip, CD2F1 mice, survival T/C; assay: NCI In Vivo Anticancer Drug Screen. Data for tumor model P388 Leukemia (intraperitoneal) in CD2F1 (CDF1) mice; conditions: endpoint: median survival time; dose: 240.0 mg/kg/injection; schedule: Q01DX005 (ip); vehicle: Klucel (hydroxypropylcellulose) (HPC); higher = longer survival
Inconclusive results and toxic doses are left out.
The following compounds are shown together with reported T/C values.
Readout Name: T/C

>>> value("O=C1C2=C(Nc3cc([N+](=O)[O-])ccc3N2)OC1c1ccc(Cl)cc1Cl (stereo unspecified)")
"111 % of control"
>>> value("COc1ccc2c(c1)[nH]c1c(/C=C/c3ccc([N+](=O)[O-])cc3)nccc12")
"90 % of control"
>>> value("CN(c1c(N)nc(N)nc1N)S(=O)(=O)c1ccc([N+](=O)[O-])cc1")
"100 % of control"
>>> value("CC(=O)[O-].CC(=O)[O-].O=C(N/N=C/c1ccccc1[OH2+])c1ccncc1.[Zn+2]")
"99 % of control"
>>> value("NC(=O)c1ccc2c3c(ccc(C(N)=O)c13)CC2")
"109 % of control"
>>> value("C=C1C(=O)OC2C(OC(=O)CC)CCCC12 (stereo unspecified)")
"110 % of control"
>>> value("C=CC(=O)CC1(C(=O)OC)NC(=S)NC(=O)C1C#N (stereo unspecified)")
"98 % of control"
>>> value("Cc1ccc(S(=O)(=O)C2C(C)(C)C2(Sc2ccccc2)[Si](C)(C)C)cc1 (stereo unspecified)")
"92 % of control"
>>> value("c1ccc2c(c1)[nH]c1c2nc2sccn21")
"116 % of control"
>>> value("CCOCc1c(-c2ccccc2)sc2ccccc2c1=O")
"92 % of control"
>>> value("CCCC1(N2CCCC2)C(=O)NC(=O)N(CC)C1=O (stereo unspecified)")
"101 % of control"
